// data source = patent US20250042886A1

The following compounds are shown together with reported pest or weed control at 500 ppm values.
- Test system: Alternaria brassicae
- test: In vivo preventive test on Alternaria brassicae (leaf spot on radish or cabbage)
- experimentalConditions: 500 ppm of active ingredient, sprayed on young radish or cabbage plants 24 h before inoculation, evaluated 3 to 4 days after inoculation, read-out: efficacy

Some entries whose results are on file:
Cc1cccc(Sc2nnc3ccccc3c2C2=NOC[C@H](c3ccc(C)s3)N2)n1 (racemic) [Compound I-066] | 80 to 89%
Cc1cc([C@@H]2CON=C(c3c(Sc4cccc(Cl)c4)nnc(C)c3C)N2)c(C)s1 (racemic) [Compound I-100] | 90 to 100%
COc1cccc(Sc2cnc(C)nc2C2=NOC[C@H](Cc3ccc(C)cc3C)N2)c1 (racemic) [Compound I-009] | 80 to 89%
Cc1ccc(C[C@@H]2CON=C(c3nc(C)ncc3Sc3cccc(Cl)c3)N2)c(C)c1 (racemic) [Compound I-031] | 90 to 100%
Cc1ccc(C[C@H]2CON=C(c3c(Sc4cccc(C(F)(F)F)c4)cnc4ccccc34)N2)c(C)c1 (racemic) [Compound I-030] | 70 to 79%
Cc1ccc(CC2CON=C(c3cc(Cl)nnc3Sc3cccc(C(F)(F)F)c3)N2)c(C)c1 (racemic) [Compound I-017] | 90 to 100%

Would you mind telling me what pest or weed control at 500 ppm value was observed for Cc1cccc(Sc2nnc(C)c(C)c2C2=NOCC(c3ccc(C)s3)N2)c1 (racemic) [Compound I-095] ? 90 to 100%

Another compound to check: Cc1cccc(Sc2cnc(C)nc2C2=NOC[C@@H](Cc3ccc(C)cc3Cl)N2)c1 (racemic) [Compound I-010] 80 to 89%

Another compound to check: Cc1ccc(C[C@@H]2CON=C(c3nc(C)ncc3Sc3cccc(Cl)c3)N2)c(Cl)c1 (racemic) [Compound I-033] 80 to 89%

* * *

- System: Colletotrichum lindemuthianum
- test: In vivo preventive test on Colletotrichum lindemuthianum (leaf spot on bean)
- experimentalConditions: 168 h, 500 ppm of active ingredient, sprayed on young bean plants 24 h before inoculation, evaluated 7 days after inoculation, read-out: efficacy
metricName: pest or weed control at 500 ppm

Some entries whose results are on file:
COc1cccc(Sc2nnc(C)c(C)c2C2=NOC[C@@H](c3cc(C)sc3C)N2)c1 (racemic) | 80 to 89%
FC(F)(F)c1cccc(Sc2cnc(Cl)cc2C2=NOC[C@@H](Cc3ccc(Cl)cc3Cl)N2)c1 (racemic) | 90 to 100%
Cc1ccc(C[C@@H]2CON=C(c3cc(Cl)nnc3Sc3ccc(C(F)(F)F)cc3)N2)c(C)c1 (racemic) | 90 to 100%

Consider the record given below.
Checklist item: pest or weed control at 500 ppm tested on Colletotrichum lindemuthianum, entry Cc1ccc(C[C@H]2CON=C(c3c(Sc4cccc(C(F)(F)F)c4)cnc4ccccc34)N2)c(C)c1 (racemic) , value? 90 to 100%

* * *

The following compounds are shown together with reported inhibition at 20 ppm values.
- Tested on: Colletotrichum lindemuthianum
- test: Colletotrichum lindemuthianum in vitro cell test
- Format: cell-based
- experimentalConditions: 144 h, 20 ppm of active ingredient, liquid culture, 6 days incubation, read-out: efficacy (inhibition of fungal growth)

Some entries whose results are on file:
Cc1cccc(Sc2cnc(C)nc2C2=NOC[C@@H](Cc3ccc(C)cc3C)N2)c1 (racemic) | 90 to 100%
FC(F)(F)c1cccc(Sc2cnc(Cl)cc2C2=NOC[C@@H](Cc3ccc(Cl)cc3Cl)N2)c1 (racemic) | 90 to 100%
Cc1ccc(C[C@@H]2CON=C(c3nc(C)ncc3Sc3cccc(Cl)c3)N2)c(C)c1 (racemic) | 90 to 100%

Would you mind telling me what inhibition at 20 ppm value was observed for COc1cccc(Sc2nnc3ccccc3c2C2=NOC[C@@H](Cc3ccc(C)cc3C)N2)c1 (racemic) ? 90 to 100%
